Reference source for all entries: FireProtDB (doi:10.1093/protein/15.10.817)

B1: High mobility group protein B1, P63159 (parent)
chain: MGKGDPKKPRGKMSSYAFFVQTCREEHKKKHPDASVNFSEFSKKCSERWKTMSAKEKGKFEDMAKADKARYEREMKTYIPPKGETKKKFKDPNAPKRPPSAFFLFCSEYRPKIKGEHPGLSIGDVAKKLGEMWNNTAADDKQPYEKKAAKLKEKYEKDIAAYRAKGKPDAAKKGVVKAEKSKKKKEEEDDEEDEEDEEEEEEEEDEDEEEDDDDE

# Variants of: B1
# testSettings: Rattus norvegicus; pH 7; Thermal; CD; HEPES 10 mM; NiSO4 1 mM; structure 1HME; whole UniProt chain shown
experimentalEndpoint: unfolding enthalpy (van 't Hoff) (kcal/mol)
Express it in kcal/mol; write the number only.

D139H
41

Ask | If you can, please state the reported unfolding enthalpy (van 't Hoff) value of "S121H" .
Reply | 31.4

Ask | I have this variant here, "G123H" , and I need its recorded unfolding enthalpy (van 't Hoff).
Reply | 36.8

Ask | Request the reported unfolding enthalpy (van 't Hoff) associated with "I122H"
Reply | 34.2

Ask | Query: unfolding enthalpy (van 't Hoff); subject: "D140H"
Reply | 36.8
